test-target: PDE5A1 (Homo sapiens)
Construct: from tissue; host or cells: human platelets from fresh donor blood (10,000 x g supernatant of sonicated lysate)
assay-protocol: Inhibition of type 5 phosphodiesterase (PDE5) activity, modified SPA test with human platelet lysate
Format: biochemical
particulars: 0.5 μM cGMP, read-out: PDE5A1 inhibitory values [measured as −log IC50 (mol/l)] (converted)
Listed here are molecules together with their documented IC50.

Take a look at these entries with their results.
molecule | test-target | measured-attribute | value-observed
COCC(=O)N1CC[C@@H](NC(=O)c2c(C)[nH]c3c(-c4cc(F)ccc4OCC4CC4)ncnc23)C1 [Example E48] | PDE5A1 (Homo sapiens) | IC50 | 1 to 10 nM
COc1ccc(OCC2CC2)c(-c2ncnc3c(C(=O)N[C@H]4CC[C@H](NC(C)=O)CC4)c(C)[nH]c23)c1 [Example E69] | PDE5A1 (Homo sapiens) | IC50 | < 1 nM

Continue with the next molecule.
Form field IC50, entry CCC(=O)N[C@H]1CC[C@H](NC(=O)c2c(C)[nH]c3c(-c4cc(C(F)F)ccc4OCC4CC4)ncnc23)C[C@@H]1F (relative stereo) [Example P210] : < 1 nM

====

test-target: PDE5A1 (Homo sapiens)
Construct: from tissue; host or cells: human platelets from fresh donor blood (10,000 x g supernatant of sonicated lysate)
assay-protocol: Inhibition of type 5 phosphodiesterase (PDE5) activity, modified SPA test with human platelet lysate
Type: biochemical
particulars: 0.5 μM cGMP, read-out: PDE5A1 inhibitory values [measured as −log IC50 (mol/l)] (converted)
Attribute: IC50

Look over these answered cases.
compound | test-target | IC50
CCC(=O)N1CC[C@@H](NC(=O)c2c(C)[nH]c3c(-c4ccc(F)cc4OCC4CC4)ncnc23)C1 | PDE5A1 (Homo sapiens) | < 1 nM
CCC(=O)N[C@H]1CC[C@H](NC(=O)c2c(C)[nH]c3c(-c4ccc(F)cc4OCC4CC4)ncnc23)CC1 | PDE5A1 (Homo sapiens) | < 1 nM
COc1ccc(OCC2CC2)c(-c2ncnc3c(C(=O)NC4CCN(C(C)=O)CC4)c(C)[nH]c23)c1 | PDE5A1 (Homo sapiens) | < 1 nM
CCC(=O)N1CCC(NC(=O)c2c(C)[nH]c3c(-c4cc(OC)c(F)cc4OCC4CC4)nc(C)nc23)CC1 | PDE5A1 (Homo sapiens) | < 1 nM
CCc1ccc(OCC2CC2)c(-c2ncnc3c(C(=O)N[C@@H]4CN(C(=O)CO)C[C@H]4O)c(C)[nH]c23)c1 (relative stereo) | PDE5A1 (Homo sapiens) | 1 to 10 nM

Documented IC50 of Cc1[nH]c2c(-c3c(OCC4CC4)ccc4c3OCO4)ncnc2c1C(=O)N[C@H]1CC[C@@H](NC(=O)[C@H](C)O)CC1 : < 1 nM

Entry Cc1[nH]c2c(-c3ccc(F)cc3OCC3CC3)ncnc2c1C(=O)N[C@@H]1CCN(C(=O)CO)C1 , IC50 reported as 1 to 10 nM

====

Reported IC50 values for the following compounds.
test-target: PDE4B1 (Homo sapiens, UniProt Q07343)
Construct: made in house; host or cells: SF21 insect cells (baculovirus; pCRBac vector), 1000 x g supernatant of homogenate
Sequence (Q07343 whole entry): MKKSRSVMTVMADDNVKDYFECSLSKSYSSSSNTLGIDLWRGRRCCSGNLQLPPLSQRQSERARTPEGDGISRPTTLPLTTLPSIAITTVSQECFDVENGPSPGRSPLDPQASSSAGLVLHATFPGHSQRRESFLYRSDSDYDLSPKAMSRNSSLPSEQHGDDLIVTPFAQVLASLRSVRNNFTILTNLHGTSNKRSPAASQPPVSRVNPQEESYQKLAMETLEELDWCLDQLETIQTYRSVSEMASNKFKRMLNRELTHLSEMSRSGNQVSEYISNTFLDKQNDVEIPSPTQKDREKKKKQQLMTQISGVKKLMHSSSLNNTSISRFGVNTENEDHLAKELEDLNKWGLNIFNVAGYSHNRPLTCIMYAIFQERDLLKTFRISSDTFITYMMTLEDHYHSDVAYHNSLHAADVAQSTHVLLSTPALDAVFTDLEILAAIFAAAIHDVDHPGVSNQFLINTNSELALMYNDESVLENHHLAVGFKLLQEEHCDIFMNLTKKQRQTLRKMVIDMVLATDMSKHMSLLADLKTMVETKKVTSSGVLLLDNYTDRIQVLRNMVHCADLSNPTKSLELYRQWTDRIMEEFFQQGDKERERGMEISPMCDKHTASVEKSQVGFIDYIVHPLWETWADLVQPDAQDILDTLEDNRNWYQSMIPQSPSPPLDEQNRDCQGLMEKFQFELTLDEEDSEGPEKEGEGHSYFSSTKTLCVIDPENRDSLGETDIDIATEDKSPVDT
assay-protocol: Inhibition of type 4 phosphodiesterase (PDE4) activity, modified SPA test with recombinant PDE4B1 expressed in SF21 insect cells
Assay type: biochemical
particulars: recombinant PDE4B1, 0.5 μM cAMP, read-out: PDE4B1 inhibitory values [measured as −log IC50 (mol/l)] (converted)

Past entries and their recorded results:
compound | IC50
Cc1[nH]c2c(-c3cc(C(F)(F)F)ccc3OCC3CC3)ncnc2c1C(=O)N[C@H]1CC[C@H](NC(=O)CO)CC1 | < 100 nM
CCc1ccc(OCC2CC2)c(-c2ncnc3c(C(=O)N[C@@H]4CN(C(=O)CO)C[C@H]4O)c(C)[nH]c23)c1 (relative stereo) | 100 to 1000 nM
COCC(=O)N1CCC(NC(=O)c2c(C)[nH]c3c(-c4cc(C)ccc4OCC4CC4)nc(C)nc23)CC1 | 100 to 1000 nM
COCC(=O)N[C@H]1CC[C@H](NC(=O)c2c(C)[nH]c3c(-c4cc(C(F)F)ccc4OCC4CC4)ncnc23)CC1 | < 100 nM
Cc1ccc(OCC2CC2)c(-c2ncnc3c(C(=O)N[C@H]4CCC[C@H]4O)c(C)[nH]c23)c1 | 100 to 1000 nM
CCOC(=O)N1CCC(NC(=O)c2c(C)[nH]c3c(-c4cc(F)ccc4OCC4CC4)ncnc23)CC1 | 100 to 1000 nM
CCc1ccc(OCC2CC2)c(-c2ncnc3c(C(=O)N[C@@H]4CN(C(C)=O)C[C@H]4O)c(C)[nH]c23)c1 (relative stereo) | 100 to 1000 nM
COCC(=O)N[C@H]1CC[C@H](NC(=O)c2c(C)[nH]c3c(-c4cc(C(F)F)ccc4OCC4CC4)ncnc23)C[C@@H]1F (relative stereo) | < 100 nM
Cc1[nH]c2c(-c3cc(C(C)C)ccc3OCC3CC3)ncnc2c1C(=O)N[C@H]1CC[C@@H](NC(=O)[C@H](C)O)CC1 | 100 to 1000 nM
CC(=O)N[C@H]1CC[C@@H](NC(=O)c2c(C)[nH]c3c(-c4cc(C(F)(F)F)ccc4OCC4CC4)ncnc23)CC1 | 100 to 1000 nM

The recorded IC50 for Cc1ccc(OCC2CC2)c(-c2ncnc3c(C(=O)N[C@@H]4CCC[C@H]4O)c(C)[nH]c23)c1 is 100 to 1000 nM

Reported IC50 ( COCC(=O)N[C@H]1CC[C@H](NC(=O)c2c(C)[nH]c3c(-c4cc(C(F)F)ccc4OCC4CC4)ncnc23)C1 ) = < 100 nM

Sure, the documented IC50 for CC(=O)N[C@H]1CC[C@H](NC(=O)c2c(C)[nH]c3c(-c4cc(C(F)F)ccc4OCC4CC4)ncnc23)C[C@@H]1F (relative stereo) is < 100 nM

CCC(=O)N[C@H]1CC[C@H](NC(=O)c2c(C)[nH]c3c(-c4cc(C(F)(F)F)ccc4OCC4CC4)ncnc23)CC1 yielded IC50 of < 100 nM

The recorded IC50 for entry CC(=O)N1CCC(NC(=O)c2c(C)[nH]c3c(-c4cc(C)ccc4OCC4CC4)nc(C)nc23)CC1 equals 100 to 1000 nM

The reported value for COc1ccc(OCC2CC2)c(-c2ncnc3c(C(=O)N[C@H]4CC[C@@H](NC(=O)CO)CC4)c(C)[nH]c23)c1 in terms of IC50 is 100 to 1000 nM

Briefly, IC50 measured for COc1ccc(OCC2CC2)c(-c2ncnc3c(C(=O)N[C@H]4CC[C@H](NC(=O)CO)CC4)c(C)[nH]c23)c1 : 100 to 1000 nM

IC50 reported for this compound Cc1ccc(OCC2CC2)c(-c2ncnc3c(C(=O)N[C@H]4CC[C@@H](NC(=O)CO)CC4)c(C)[nH]c23)c1 : < 100 nM

So, CCC(=O)N[C@@H]1CC[C@@H](NC(=O)c2c(C)[nH]c3c(-c4cc(C(F)F)ccc4OCC4CC4)ncnc23)[C@H](F)C1 (relative stereo) ? Its IC50 was < 100 nM
